assay-details: Ocular distribution of CDO in rabbits, single dose topical ocular vs. oral
Format: in vivo, New Zealand White rabbit
measurement-conditions: New Zealand White, optic nerve; rabbit, Topical eye administration 100 mg/ml = 3.3 mg, 3 h; read-out: CDO μg/g tissue Optic nerve

molecule	concentration at 3 h [µg/g]
O=S(=O)(O)c1cc(O)ccc1O [CDO, Calcium dobesilate monohydrate]	4.5

* * *

assay-details: Ocular distribution of CDO in rats, single dose topical ocular vs. oral
Type: in vivo, Sprague Dawley (SD) rat
measurement-conditions: Sprague Dawley, sclera; rat, topical eye 100 mg/ml (eye drop of 10 μl) = 1 mg, 0.25 h; read-out: CDO concentrations Sclera
observed-property: concentration at 0.25 h (ng/g)

compound	test-result
O=S(=O)(O)c1cc(O)ccc1O [CDO, Calcium dobesilate monohydrate]	3540

The origin of these recorded values is patent US20200390729A1.
